# experimental.system: FLJ13397 clone-derived protein (CARP) (Homo sapiens, UniProt Q9H8M7)
# Construct: A human full-length cDNA clone was expressed as a protein with an N-terminal His tag; His tag (pDEST17 Gateway vector) (N); made in house; host or cells: Escherichia coli BL21star(DE3)pLysS
# test.details: SEC/MS (size exclusion chromatography / mass analysis) interaction analysis between FLJ13397 clone-derived protein and compounds
# Type: binding
# run.conditions: compound 100 μM; protein 0 μM (protein-free reference)
measurement.type: spectrum intensity of the extracted mass range (compound in SEC spin column filtrate)

Solved entries:
# compound, result
data = [
    ("COC(=O)Nc1nc2ccc(C(=O)c3cccs3)cc2[nH]1 [Nocodazole]", 6162151),
    ("CC(C)(C)c1ccc(C(O)CCCN2CCC(C(O)(c3ccccc3)c3ccccc3)CC2)cc1 (stereo not drawn) [Terfenadine]", 241452949),
]

// next entry
### Prompt What value of measured spectrum intensity of the extracted mass range (compound in SEC spin column filtrate) is listed for OCCOCCN1CCN(C(c2ccccc2)c2ccc(Cl)cc2)CC1 (stereo not drawn) [Hydroxyzine] ?
### Response 300477422

* * *

Examples of compounds with documented spectrum intensity of the extracted mass range (compound in SEC spin column filtrate) follow.
# experimental.system: FLJ13397 clone-derived protein (CARP) (Homo sapiens)
# Construct: A human full-length cDNA clone was expressed as a protein with an N-terminal His tag; His tag (pDEST17 Gateway vector) (N); made in house; host or cells: Escherichia coli BL21star(DE3)pLysS
# test.details: SEC/MS (size exclusion chromatography / mass analysis) interaction analysis between FLJ13397 clone-derived protein and compounds
# Assay type: binding
# run.conditions: compound 10 μM; protein 0 μM (protein-free reference)
Where a name gives a salt, the structure may show the parent alone.
Give the value as a plain number.

# annotated cases, reported spectrum intensity of the extracted mass range (compound in SEC spin column filtrate) shown
# compound, readout.number
rows = [
    ("Nc1nc2ccccc2[nH]1", 153479),
    ("CCCSc1ccc2nc(NC(=O)OC)[nH]c2c1", 25263),
    ("COC(=O)Nc1nc2ccc([S+]([O-])c3ccccc3)cc2[nH]1 (stereo not shown)", 28662280),
]

### Prompt Report spectrum intensity of the extracted mass range (compound in SEC spin column filtrate) for CC[C@@H](C(=O)[C@@H](C)[C@@H](O)[C@H](C)CCc1ccc(C)c(O)c1C(=O)O)[C@H]1O[C@](CC)([C@H]2CC[C@](O)(CC)[C@H](C)O2)C[C@@H]1C [Lasalocid sodium salt] please.
### Response 13154726

* * *

Entries and their spectrum intensity of the extracted mass range (compound in SEC spin column filtrate) values follow.
# experimental.system: FLJ13397 clone-derived protein (CARP) (Homo sapiens)
# Construct: A human full-length cDNA clone was expressed as a protein with an N-terminal His tag; His tag (pDEST17 Gateway vector) (N); made in house; host or cells: Escherichia coli BL21star(DE3)pLysS
# Sequence (Q9H8M7 1-445): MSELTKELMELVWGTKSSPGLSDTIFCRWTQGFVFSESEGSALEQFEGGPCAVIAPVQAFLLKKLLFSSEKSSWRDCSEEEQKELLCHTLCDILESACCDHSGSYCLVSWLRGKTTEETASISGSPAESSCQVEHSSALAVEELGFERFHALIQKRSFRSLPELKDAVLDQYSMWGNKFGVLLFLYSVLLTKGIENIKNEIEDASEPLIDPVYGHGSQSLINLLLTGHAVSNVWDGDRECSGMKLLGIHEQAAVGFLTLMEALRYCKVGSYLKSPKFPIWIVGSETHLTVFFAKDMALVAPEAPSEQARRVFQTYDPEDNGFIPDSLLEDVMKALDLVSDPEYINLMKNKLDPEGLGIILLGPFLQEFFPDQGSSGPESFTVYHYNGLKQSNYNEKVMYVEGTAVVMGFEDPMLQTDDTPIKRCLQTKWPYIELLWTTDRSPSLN
# test.details: SEC/MS (size exclusion chromatography / mass analysis) interaction analysis between FLJ13397 clone-derived protein and compounds
# Assay type: binding
# run.conditions: compound 250 μM; protein 23.75 μM
Counter-ions that a name gives are not always drawn.
The answer should be a number; do not append a unit.

# molecule, readout.number
measured = [
    ("c1ccc2[nH]cnc2c1", 10439034),
    ("OCCOCCN1CCN(C(c2ccccc2)c2ccc(Cl)cc2)CC1 (centres unmarked) [Hydroxyzine]", 919366054),
    ("Nc1nc2ccccc2n1Cc1ccccc1", 125775631),
    ("CCCS(=O)(=O)c1ccc2nc(NC(=O)OC)[nH]c2c1", 280956724),
    ("CCCOc1ccc2nc(NC(=O)OC)[nH]c2c1", 20401030),
]

### Prompt Item CC[C@@H](C(=O)[C@@H](C)[C@@H](O)[C@H](C)CCc1ccc(C)c(O)c1C(=O)O)[C@H]1O[C@](CC)([C@H]2CC[C@](O)(CC)[C@H](C)O2)C[C@@H]1C [Lasalocid sodium salt] has what recorded spectrum intensity of the extracted mass range (compound in SEC spin column filtrate)?
### Response 9287976762

### Prompt What value of measured spectrum intensity of the extracted mass range (compound in SEC spin column filtrate) is listed for "CCCSc1ccc2nc(NC(=O)OC)[nH]c2c1" ?
### Response 18185332

### Prompt Please look up its spectrum intensity of the extracted mass range (compound in SEC spin column filtrate): "COC(=O)Nc1nc2ccccc2[nH]1"
### Response 129995989

* * *

# experimental.system: FLJ13397 clone-derived protein (CARP) (Homo sapiens, UniProt Q9H8M7)
# Construct: A human full-length cDNA clone was expressed as a protein with an N-terminal His tag; His tag (pDEST17 Gateway vector) (N); made in house; host or cells: Escherichia coli BL21star(DE3)pLysS
# test.details: SEC/MS (size exclusion chromatography / mass analysis) interaction analysis between FLJ13397 clone-derived protein and compounds
# Assay type: binding
# run.conditions: compound 1 μM; protein 47.5 μM
Where a name gives a salt, the structure may show the parent alone.
Recorded spectrum intensity of the extracted mass range (compound in SEC spin column filtrate), one value per entry.
Please give only the number in your answer, with no unit.

Some compounds with known spectrum intensity of the extracted mass range (compound in SEC spin column filtrate) results, for comparison:
# compound, readout.number
measured = [
    ("CC(C)(C)c1ccc(C(O)CCCN2CCC(C(O)(c3ccccc3)c3ccccc3)CC2)cc1 (centres unmarked)", 1281933),
    ("CC[C@@H](C(=O)[C@@H](C)[C@@H](O)[C@H](C)CCc1ccc(C)c(O)c1C(=O)O)[C@H]1O[C@](CC)([C@H]2CC[C@](O)(CC)[C@H](C)O2)C[C@@H]1C [Lasalocid sodium salt]", 10467838),
    ("CCCS(=O)(=O)c1ccc2[nH]c(N)nc2c1", 484482),
]

### Prompt Which spectrum intensity of the extracted mass range (compound in SEC spin column filtrate) value is on record for "COc1ccc(CCN2CCC(Nc3nc4ccccc4n3Cc3ccc(F)cc3)CC2)cc1" ?
### Response 18099237

### Prompt Which spectrum intensity of the extracted mass range (compound in SEC spin column filtrate) is listed for "CCCSc1ccc2nc(NC(=O)OC)[nH]c2c1" ?
### Response 247973

### Prompt For the compound "OC(c1ccccc1)(c1ccccc1)C1CCNCC1" , what spectrum intensity of the extracted mass range (compound in SEC spin column filtrate) is on record?
### Response 1961004

### Prompt # spectrum intensity of the extracted mass range (compound in SEC spin column filtrate) lookup, item "c1ccc2[nH]c(-c3cscn3)nc2c1"
### Response 47595391

### Prompt Report spectrum intensity of the extracted mass range (compound in SEC spin column filtrate) for "Nc1nc2ccccc2[nH]1" please.
### Response 152781

* * *

# experimental.system: FLJ13397 clone-derived protein (CARP) (Homo sapiens)
# Construct: A human full-length cDNA clone was expressed as a protein with an N-terminal His tag; His tag (pDEST17 Gateway vector) (N); made in house; host or cells: Escherichia coli BL21star(DE3)pLysS
# test.details: SEC/MS (size exclusion chromatography / mass analysis) interaction analysis between FLJ13397 clone-derived protein and compounds
# Format: binding
# run.conditions: compound 100 μM; protein 0 μM (protein-free reference)
measurement.type: spectrum intensity of the extracted mass range (compound in SEC spin column filtrate)
API note: the answer field is a bare number with no unit suffix.

### Prompt Item under review: "CCCS(=O)(=O)c1ccc2nc(NC(=O)OC)[nH]c2c1" . Reported spectrum intensity of the extracted mass range (compound in SEC spin column filtrate)?
### Response 94575228

### Prompt Dear colleague, I am looking for the recorded spectrum intensity of the extracted mass range (compound in SEC spin column filtrate) of the following compound: "c1ccc2[nH]c(-c3cscn3)nc2c1"
### Response 60344905

### Prompt Which spectrum intensity of the extracted mass range (compound in SEC spin column filtrate) value belongs to "COC(=O)Nc1nc2ccc(S(=O)(=O)c3ccccc3)cc2[nH]1" ?
### Response 4055561
